# assayInfo: Determination of the acute toxicity (LD50, oral, mice)
# testParameters: mouse, in vivo, oral administration
testReadout: LD50 (mg/kg)
Write down the numeric answer in mg/kg and omit the unit.

Entry CN(C)c1ccc(C(=O)/C=C/C(=O)O)cc1 [Example 4] ; LD50 = 750
